Test system: Nilaparvata lugens (brown plant hopper - nymphs)
test.method.notes: Contact test, brown plant hopper - nymphs (NL), Rice plant
Assay type: in vivo
condition.info: 72 h, 250 ppm, 3 days, read-out: NL grading of mortality
Give measured mortality at 250 ppm for each item. Keep answers brief.

Return reported mortality at 250 ppm; argument: FC(F)(F)C(=CCCc1cccc(Oc2ccccc2)c1)c1ccc(C(F)(F)F)cc1 [Compound 15] < 50%

Return reported mortality at 250 ppm; argument: FC(F)(F)C(=CCCc1cccc(Oc2ccccc2)c1)c1ccc2c(c1)CCC2 [Compound 48] < 50%

Return reported mortality at 250 ppm; argument: CCOc1ccc(C(C/C=C\c2cccc(Oc3ccccc3)c2)C(F)(F)F)cc1 (centres unmarked) [Compound 35] 80 to 100%

Return reported mortality at 250 ppm; argument: CC(C)(C)c1ccc(C(=CCCc2cccc(Oc3ccccc3)c2)C(F)(F)F)cc1 [Compound 6] < 50%

Return reported mortality at 250 ppm; argument: FC(F)(F)Oc1ccc(C(Cl)(CCCc2cccc(Oc3ccccc3)c2)C(F)(F)F)cc1 (racemic) [Compound 62] < 50%

Return reported mortality at 250 ppm; argument: FC(F)(F)c1ccc(C(CCCc2cccc(Oc3ccccc3)c2)C(F)(F)F)cc1 (racemic) [Compound 16] 80 to 100%

Return reported mortality at 250 ppm; argument: FC(F)(F)Oc1ccc(C(CCCc2cccc(Oc3ccccc3)c2)C(F)(F)F)cc1 (racemic) [Compound 9] 80 to 100%

Return reported mortality at 250 ppm; argument: CCOc1ccc(C(=CCCc2cccc(Oc3ccccc3)c2)C(F)(F)C(F)(F)F)cc1 [Compound 10] < 50%

Return reported mortality at 250 ppm; argument: CCOc1ccc(/C(=C\C=C\c2ccc(F)c(Oc3ccccc3)c2)C(F)(F)F)cc1 [Compound 36] 80 to 100%

Return reported mortality at 250 ppm; argument: FC(F)(F)Oc1ccc(C(F)(CCCc2cccc(Oc3ccccc3)c2)C(F)(F)F)cc1 (racemic) [Compound 60] 80 to 100%

Return reported mortality at 250 ppm; argument: Fc1ccc(C(CCCc2cccc(Oc3ccccc3)c2)C(F)(F)F)cc1 (racemic) [Compound 53] 80 to 100%

Return reported mortality at 250 ppm; argument: FC(F)(F)Oc1ccc(C(=CCCc2cccc(Oc3ccccc3)c2)C(F)(F)F)cc1 [Compound 7] 80 to 100%

Return reported mortality at 250 ppm; argument: CCOc1ccc(C(CCCc2ccc(F)c(Oc3ccccc3)c2)C(F)(F)F)cc1 (racemic) [Compound 5] 80 to 100%

Return reported mortality at 250 ppm; argument: CCOc1ccc(C(C/C=C/c2cccc(Oc3ccccc3)c2)C(F)(F)F)cc1 (centres unmarked) [Compound 34] < 50%

###

Test system: Heliothis virescens (tobacco budworm - larvae)
test.method.notes: Residual test, tobacco budworm - larvae (HV), Cotton leaf
Assay type: in vivo
condition.info: 72 h, read-out: HV grading of mortality
property: mortality at 250 ppm

Return reported mortality at 250 ppm; argument: `FC(F)(F)C(=CCCc1cccc(Oc2ccccc2)c1)c1ccc2c(c1)CCC2` < 50%

Return reported mortality at 250 ppm; argument: FC(F)(F)Oc1ccc(C(CCCc2cccc(Oc3ccccc3)c2)C(F)(F)F)cc1 (racemic) 80 to 100%

Return reported mortality at 250 ppm; argument: FC(F)(F)COc1ccc(C(CCCc2cccc(Oc3ccccc3)c2)C(F)(F)F)cc1 (racemic) 80 to 100%

Return reported mortality at 250 ppm; argument: CCOc1ccc(C(CC=Cc2cccc(Oc3ccccc3)c2)C(F)(F)F)cc1 (stereo not shown) 80 to 100%

Return reported mortality at 250 ppm; argument: `FC(F)(F)C(=CCCc1cccc(Oc2ccccc2)c1)c1ccc(C(F)(F)F)cc1` 80 to 100%

Return reported mortality at 250 ppm; argument: `CCOc1ccc(/C(=C\C=C/c2ccc(F)c(Oc3ccccc3)c2)C(F)(F)F)cc1` < 50%

Return reported mortality at 250 ppm; argument: CCOc1ccc(C(CCCc2cccc(Oc3ccccc3)c2)C(F)(F)C(F)(F)F)cc1 (racemic) < 50%

Where do the numbers come from? From patent US4791139A.
